The following molecules are shown together with reported IC50 values.
# Study Target: γ-secretase (Homo sapiens)
# Construct: Human SH-SY5Y neuroblastoma cells overexpressing the direct γ-secretase substrate SPA4CT; endogenous in cells
# Run Description: Cell-Based γ-Secretase Assay (Aβ(40)/Aβ(42) in media of SH-SY5Y cells overexpressing SPA4CT)
# Condition Notes: Human SH-SY5Y neuroblastoma cells overexpressing SPA4CT; values given as ranges; read-out: IC50 values for Aβ(1-42) inhibition
# Experimental: Cell-Based γ-Secretase Assay Human SH-SY5Y neuroblastoma cells overexpressing the direct γ-secretase substrate SPA4CT were induced with sodium butyrate (10 mM) for 4 hours prior to plating. […] After overnight incubation of the assay plates on a shaker at 4° C., the Origen M8 Analyser (Igen Inc.) was calibrated according to the manufacturer's instructions. […] 150 μl Origen buffer was added to each well and the plates were read on the Origen M8 Analyser according to the manufacturer's instructions. […]

// below: answered molecules
CC(C)(C)CC[C@H](CCC(F)(F)F)N1CCC(F)(F)[C@H](CC(=O)O)[C@H]1c1ccc(C(F)(F)F)cc1 (single isomer, unassigned) [Example 18]    < 500 nM
CC(C)(C)/C=C\[C@H](CCC(F)(F)F)N1CCC(F)(F)[C@H](CC(=O)O)[C@H]1c1ccc(C(F)(F)F)cc1 [Example 6]    1000 to 1500 nM

Attention now turns to another entry.
Requested read-out IC50, target or system γ-secretase (Homo sapiens), entry CC(C)(C)CC[C@H](c1ccc(C(F)(F)F)cc1)N1CCC(F)(F)[C@H](CC(=O)O)[C@H]1c1ccc(C(F)(F)F)cc1 (relative stereo) [Example 1]
1000 to 1500 nM

---

# Study Target: γ-secretase (Homo sapiens)
# Construct: Human SH-SY5Y neuroblastoma cells overexpressing the direct γ-secretase substrate SPA4CT; endogenous in cells
# Run Description: Cell-Based γ-Secretase Assay (Aβ(40)/Aβ(42) in media of SH-SY5Y cells overexpressing SPA4CT)
# Condition Notes: Human SH-SY5Y neuroblastoma cells overexpressing SPA4CT; values given as ranges; read-out: IC50 values for Aβ(1-42) inhibition
pIC50: −log10 of the molar value.
Value Type: pIC50

CC(C)(C)C#CCN1[C@H](c2ccc(C(F)(F)F)cc2)[C@@H](CC(=O)O)C(F)(F)C[C@H]1c1ccc(C(F)(F)F)cc1 (relative stereo)    5.52 to 5.70

Given the entry CC(C)(C)/C=C\[C@H](CCC(F)(F)F)N1CCC(F)(F)[C@H](CC(=O)O)[C@H]1c1ccc(C(F)(F)F)cc1 (relative stereo) [Example 20] , report its measured pIC50.
> 6.30

And what about the compound CC(C)(C)C[C@@H](CCc1ccc(C(F)(F)F)cc1)N1CCC(F)(F)[C@H](CC(=O)O)[C@H]1c1ccc(C(F)(F)F)cc1 (relative stereo) ?
5.52 to 5.70

Lookup CC(C)(C)/C=C\[C@H](CC(C)(C)C)N1CCC(F)(F)[C@H](CC(=O)O)[C@H]1c1ccc(C(F)(F)F)cc1 (relative stereo)
5.52 to 5.70

Also check CC(C)(C)C#C[C@H](CCC(F)(F)F)N1CCC(F)(F)[C@H](CC(=O)O)[C@H]1c1ccc(C(F)(F)F)cc1 (single isomer, unassigned)
> 6.30

Check C=C(C)C#C[C@H](CCC(=C)C)N1CCC(F)(F)[C@H](CC(=O)O)[C@H]1c1ccc(C(F)(F)F)cc1 (relative stereo) too.
5.70 to 5.82

Same read-out for CC(C)(C)CCCN1[C@H](c2ccc(C(F)(F)F)cc2)[C@@H](CC(=O)O)C(F)(F)C[C@H]1c1ccc(C(F)(F)F)cc1 (relative stereo) ?
5.82 to 6.00

Now consider CC(C)(C)CC[C@H](CCC(F)(F)F)N1CCC(F)(F)[C@H](CC(=O)O)[C@H]1c1ccc(C(F)(F)F)cc1 (single isomer, unassigned) [Example 22] and answer again.
5.82 to 6.00

---

# Study Target: γ-secretase (Homo sapiens, UniProt P49768)
# Construct: Human SH-SY5Y neuroblastoma cells overexpressing the direct γ-secretase substrate SPA4CT; endogenous in cells
# Run Description: Cell-Based γ-Secretase Assay (Aβ(40)/Aβ(42) in media of SH-SY5Y cells overexpressing SPA4CT)
# Condition Notes: Human SH-SY5Y neuroblastoma cells overexpressing SPA4CT; values given as ranges; read-out: IC50 values for Aβ(1-42) inhibition
Value Type: IC50

Please review the following examples before continuing.
CC(C)(C)CCC(CCC(C)(C)C)N1CCC(F)(F)[C@H](CC(=O)O)[C@H]1c1ccc(C(F)(F)F)cc1 (relative stereo)    1.5 to 2 µM
CC(C)(C)CC[C@H](CC(C)(C)C)N1CCC(F)(F)[C@H](CC(=O)O)[C@H]1c1ccc(C(F)(F)F)cc1 (relative stereo)    1.5 to 2 µM
C=C(C)C#C[C@H](CCC(F)(F)F)N1CCC(F)(F)[C@H](CC(=O)O)[C@H]1c1ccc(C(F)(F)F)cc1 (relative stereo)    1.5 to 2 µM
CC(C)(C)C#C[C@H](CCCC(C)(C)C)N1CCC(F)(F)[C@H](CC(=O)O)[C@H]1c1ccc(C(F)(F)F)cc1 (relative stereo)    1 to 1.5 µM

Continue with the compound presented below.
What value of measured IC50 is listed for CC(C)CC[C@H](c1ccc(C(F)(F)F)cc1)N1CCC(F)(F)[C@H](CC(=O)O)[C@H]1c1ccc(C(F)(F)F)cc1 (relative stereo) ?
2 to 3 µM

The measurements presented in this section are drawn from patent US20100010041A1.
